The reader will find reported pKd values listed item by item below.
Target or system: T1, VEGF-121-His (inhouse production) (human, UniProt P15692 207-395)
T1 construct: His-tagged human VEGF-A121 used in the ELISAs and (captured by an anti-His antibody) in SPR; also called hVEGF-A121; his VEGF; not shown: His tag
T1 sequence: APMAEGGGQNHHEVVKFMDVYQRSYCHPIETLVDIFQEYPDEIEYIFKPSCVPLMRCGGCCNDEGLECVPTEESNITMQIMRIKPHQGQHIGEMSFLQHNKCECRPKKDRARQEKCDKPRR
Assay summary: SPR (Biacore), hVEGF-A121 captured by anti-His antibody, Fab injected, 37° C
pKd: −log10 of the molar value.

Binder: VEGF-P1AD8675 Fab fragment (Fab, V domains shown) VH: EVQLVESGGGLVQPGGSLRLSCAASGFTFTNYAMTWVRQAPGKGLEWVSSIGNGGGIYTYYADSVKGRFTISRDNWKNTLYLQMNSLRAEDTAVYYCAKGDNLFDSWGPGTLVTVSS VL: DIQMTQSPASLSASVGDRVTITCRASQSIYSSLNWYQQKPGKAPKLLIYASTLQSGVPSRFSGSASGTDFTLTISSLQPEDVATYYCQQYQNFPRTFGQGTKLEIKR
pKd: 10.19
--
Binder: VEGF-0113 Fab fragment (Fab, V domains shown, Variant of VEGF-0089 (G to P at position 6 of H-CDR2); Fab with rabbit derived CLkappa and CH1) VH: EVQLVESGGGLVQPGGSLRLSCAASGFTFTNYAMTWVRQAPGKGLEWVSSIGNGPGIYTYYADSVKGRFTISRDNSKNTLYLQMNSLRAEDTAVYYCAKGDNLFDSWGPGTLVTVSS VL: DIQMTQSPASLSASVGDRVTITCRASQSIYSSLNWYQQKPGKAPKLLIYASTLQSGVPSRFSGSASGTDFTLTISSLQPEDVATYYCQQYQNFPRTFGQGTKLEIKR
pKd: 10.54
--
Binder: VEGF-P1AE3521 Fab fragment (Fab, V domains shown) VH: EVQLVESGGGLVQPGGSLRLSCAASGFTFTNYAMTWVRQAPGKGLEWVSSIGSGGFYTYYADSVKGRFTISRDNWKNTLYLQMNSLRAEDTAVYYCAKGDNLFDSWGPGTLVTVSS VL: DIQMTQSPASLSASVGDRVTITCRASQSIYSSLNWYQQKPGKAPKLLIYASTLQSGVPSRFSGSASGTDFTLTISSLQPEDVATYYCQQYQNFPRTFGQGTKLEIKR
pKd: 10.21
--
Binder: HF2-9 Fab fragment (Fab, V domains shown, Prior art antibody disclosed in EP3006465) VH: EVQLVESGGGLVQPGGSLRLSCAASMFRIRSHGMQWVRQAPGKGLEYVAGISSDGSWFRVAAAVEGRFTISRDDSKNTAYLQMNSLRAEDTAVYYCARDFSTGYGADSIDAWGQGTLVTVSS VL: DIQMTQSPSSLSASVGDRVTITCSGGSMEPLGYGWYQQKPGKAPKTLIYWDDKRPSGVPSRFSGSRSGTDFTLTISSLQPEDFATYYCGAWEYSGGVGIFGQGTKVEIKR
pKd: 10.29

Reference source: patent US20210079080A1
